Data origin, for the record: patent US20240109974A1

Listed binders paired with reported % Relative activity (WT antibody/test antibody)
Target: T1, human TNFR2 on the surface of CHO-TNFR2 cells (human, UniProt P20333 23-461)
T1 construct: whole, on cells
T1 sequence (looked up): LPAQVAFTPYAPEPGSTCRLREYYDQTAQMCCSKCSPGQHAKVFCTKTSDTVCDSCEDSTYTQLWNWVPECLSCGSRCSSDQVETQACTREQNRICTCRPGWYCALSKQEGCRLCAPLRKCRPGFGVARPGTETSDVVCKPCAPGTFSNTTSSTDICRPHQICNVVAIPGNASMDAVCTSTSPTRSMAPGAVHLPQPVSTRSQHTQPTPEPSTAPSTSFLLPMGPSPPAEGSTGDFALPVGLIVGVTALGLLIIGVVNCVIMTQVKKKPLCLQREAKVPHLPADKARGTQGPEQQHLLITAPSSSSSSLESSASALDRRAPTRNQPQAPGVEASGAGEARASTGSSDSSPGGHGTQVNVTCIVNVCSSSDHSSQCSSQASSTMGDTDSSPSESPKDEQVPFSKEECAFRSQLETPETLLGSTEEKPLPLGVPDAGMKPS
Experiment: competition flow cytometry on CHO-TNFR2 cells, competitor TNFα-biotin; IC50 against 219-WT
REPORTED_ENDPOINT: % Relative activity (WT antibody/test antibody) (%)

BINDER: 219-Hu1 (antibody, V domains shown, also called VH3 + VL5) VH: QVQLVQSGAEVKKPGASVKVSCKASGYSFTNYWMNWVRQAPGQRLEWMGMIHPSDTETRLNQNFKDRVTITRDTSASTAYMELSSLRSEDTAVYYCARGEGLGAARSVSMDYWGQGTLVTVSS VL: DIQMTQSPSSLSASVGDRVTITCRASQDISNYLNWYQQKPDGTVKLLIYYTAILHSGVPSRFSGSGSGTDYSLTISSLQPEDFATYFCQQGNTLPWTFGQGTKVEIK
READING_UNIT: %
TEST_VALUE: 106
--
BINDER: 219-Hu2 (antibody, V domains shown, also called VH4 + VL5) VH: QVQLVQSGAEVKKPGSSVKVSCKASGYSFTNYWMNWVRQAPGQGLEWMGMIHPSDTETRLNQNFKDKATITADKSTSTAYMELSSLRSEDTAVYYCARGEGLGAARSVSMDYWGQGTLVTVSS VL: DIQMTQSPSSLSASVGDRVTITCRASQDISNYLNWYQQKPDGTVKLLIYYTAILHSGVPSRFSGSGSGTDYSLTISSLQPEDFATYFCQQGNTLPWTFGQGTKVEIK
READING_UNIT: %
TEST_VALUE: 127
--
BINDER: 219-Hu4 (antibody, V domains shown, also called VH6 + VL5) VH: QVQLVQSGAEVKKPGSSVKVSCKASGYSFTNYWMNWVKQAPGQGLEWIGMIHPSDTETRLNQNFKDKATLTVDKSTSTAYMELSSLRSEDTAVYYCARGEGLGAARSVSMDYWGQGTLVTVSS VL: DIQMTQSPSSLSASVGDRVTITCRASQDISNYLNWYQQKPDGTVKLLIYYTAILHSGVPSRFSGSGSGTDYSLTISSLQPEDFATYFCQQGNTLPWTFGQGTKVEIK
READING_UNIT: %
TEST_VALUE: 124
--
BINDER: 219-Hu3 (antibody, V domains shown, also called VH5 + VL5) VH: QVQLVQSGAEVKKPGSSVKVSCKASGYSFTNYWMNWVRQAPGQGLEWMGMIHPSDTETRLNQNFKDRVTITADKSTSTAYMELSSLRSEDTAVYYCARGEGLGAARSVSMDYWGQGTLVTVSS VL: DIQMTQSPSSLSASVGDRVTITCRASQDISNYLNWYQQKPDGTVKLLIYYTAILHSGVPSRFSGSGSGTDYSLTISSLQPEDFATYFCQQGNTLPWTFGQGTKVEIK
READING_UNIT: %
TEST_VALUE: 120
